In this section, each of the compounds is paired with its reported TGI.
Tested on: SNB-19 CNS
Assay: NCI tumour cell line growth inhibition, 48 h
metric: TGI

1. CCCCCCCCCCCCCCNCC(OCC)OCC    31.8 µM
2. Cc1cc(NS(=O)(=O)c2ccc(NC(=O)COC(=O)c3cccc4c(=O)c5ccccc5[nH]c34)cc2)no1    > 100 µM
3. Cc1cc(=O)c2ccccc2n1CCCCCCCCCCn1c(C)cc(=O)c2ccccc21    > 100 µM
4. CCOC(=O)N1N(c2ccccc2)C(=O)C1(c1ccccc1)c1ccccc1    > 100 µM
5. CNC(=O)c1cc2c(Oc3ccc(NC(=S)NC(=O)Cc4ccccc4)cc3F)ccnc2cc1OC    > 100 µM
6. COC1=CC(=O)NCCN1    > 100 µM
7. COc1ccc2nccc(/C=C/c3ccnc4ccc(OC)cc34)c2c1    > 100 µM
8. CCCCc1c2c(nc3c1CC/C(=C\c1ccc([N+](=O)[O-])cc1)C3=O)CCCC2    3.67 µM
9. CSc1nc(N)c2c(n1)NC(c1ccccc1)C1CCc3ccccc3C1=N2 (configuration not stated)    > 100 µM
10. O=c1cc(O)c2c(O)cc(O)cc2o1    > 100 µM
11. CC/C=C\C[C@H](O)C/C=C1/C(=O)C=C[C@@H]1C/C=C\CCCC(=O)NC    20.9 µM
12. Cc1ccc2c(CC(=O)O)cc(=O)oc2c1    > 100 µM

Value source: PubChem BioAssay (NCI)
